Tested on: CYPIR (Rice Flatsedge)
Assay: Postemergence weed control under flooded paddy conditions
Assay type: in vivo, Cyperus iria
Conditions: rate 0.2500 kg/ha, postemergence weeds, 3-4 weeks after treatment
Text: Results of herbicide evaluation are expressed on a rating scale (0-9). The scale is based upon a visual observation of plant stand, vigor, malformation, size, chlorosis and overall plant appearance as compared with a control. Plastic containers containing weeds which are 3 to 5 cm tall and rice seedlings at the 1.5 to 2.5 leaf stage are flooded with water. […] The compounds evaluated are reported by compound number given in Example 37.
// returns not fulfilled unless Herbicidal rating CYPIR is strictly below 5, in which case fulfilled

Decide: Herbicidal rating CYPIR of Cn1c(C(F)(F)F)cc(=O)n(-c2cc(N=C3SCC(=O)N3CCC(=O)O)c(Cl)cc2F)c1=O [Compound 31] strictly below 5?
fulfilled

Decide: Herbicidal rating CYPIR of CN1C(=O)CSC1=Nc1cc(N2C(=O)C3=C(CCCC3)C2=O)c(F)cc1Cl strictly below 5?
not fulfilled

Decide: Herbicidal rating CYPIR of COC(=O)CCN1C(=O)CSC1=Nc1cc(-n2c(=O)cc(C(F)(F)F)n(C)c2=O)c(F)cc1Cl strictly below 5?
not fulfilled

Decide: Herbicidal rating CYPIR of CC1SC(=Nc2cc(-n3c(=O)cc(C(F)(F)F)n(C)c3=O)c(F)cc2Cl)N(C)C1=O (stereo not drawn) strictly below 5?
not fulfilled

Decide: Herbicidal rating CYPIR of CN1C(=O)C(F)SC1=Nc1cc(N2C(=O)C3=C(CCCC3)C2=O)c(F)cc1Cl (stereo not drawn) strictly below 5?
fulfilled

Decide: Herbicidal rating CYPIR of Cn1c(C(F)(F)F)cc(=O)n(-c2cc(N=C3SCC(=O)N3CCC(=O)O)c(Cl)cc2F)c1=O [Compound 30] strictly below 5?
fulfilled

Decide: Herbicidal rating CYPIR of CCOC(=O)CN1C(=O)C(F)SC1=Nc1cc(-n2c(=O)cc(C(F)(F)F)n(C)c2=O)c(F)cc1Cl (stereo not drawn) strictly below 5?
fulfilled

###

Test system: ECHORC (Watergrass (Calif.))
Experiment: Postemergence weed control under flooded paddy conditions
Assay type: in vivo, Echinochloa oryzoides
Conditions: Rate 0.2500 kg/ha, postemergence weeds, rated 3 to 4 weeks after treatment
Field: Herbicidal rating ECHORC. Provide a value for each of the compounds that follow.
No unit in the answer, only the number.

The reported value for Cn1c(C(F)(F)F)cc(=O)n(-c2cc(N=C3SCC(=O)N3CC(=O)OCC#N)c(Cl)cc2F)c1=O in terms of Herbicidal rating ECHORC is 9.0

The reported value for CN1C(=O)C(CC(N)=O)SC1=Nc1cc(-n2c(=O)cc(C(F)(F)F)n(C)c2=O)c(F)cc1Cl (stereo not drawn) in terms of Herbicidal rating ECHORC is 3.0

The reported value for CCS(=O)(=O)NC(=O)CC1SC(=Nc2cc(-n3c(=O)cc(C(F)(F)F)n(C)c3=O)c(F)cc2Cl)N(C)C1=O (stereo not drawn) in terms of Herbicidal rating ECHORC is 5.0

###

System: ORYSAT (Rice, Tebonnet)
Assay: Postemergence herbicidal evaluation
Format: in vivo, Oryza sativa, (L.) Tebonnet
Conditions: postemergence, rate 0.1250 kg/ha
Field: ORYSAT herbicidal rating. Provide a value for each of the compounds that follow.
No unit in the answer, only the number.

The reported value for O=C1CSC(=Nc2cc(N3C(=O)C4=C(CCCC4)C3=O)c(F)cc2Cl)N1c1ccccc1 [Compound 3] in terms of ORYSAT herbicidal rating is 3.0

The reported value for CCOC(=O)CN1C(=O)C(CC(=O)OC(C)C(=O)OCC)S/C1=N/c1cc(-n2c(=O)cc(C(F)(F)F)n(C)c2=O)c(F)cc1Cl (stereo not drawn) [Compound 87] in terms of ORYSAT herbicidal rating is 1.5

The reported value for COC(=O)CN1C(=O)CSC1=Nc1cc(-n2c(=O)cc(C(F)(F)F)n(C)c2=O)c(F)cc1Cl [Compound 17] in terms of ORYSAT herbicidal rating is 5.0

The reported value for C=CCN1C(=O)C(CC(=O)NOC)SC1=Nc1cc(-n2c(=O)cc(C(F)(F)F)n(C)c2=O)c(F)cc1Cl (stereo not drawn) [Compound 85] in terms of ORYSAT herbicidal rating is 2.5

The reported value for CN1C(=O)C(F)SC1=Nc1cc(N2C(=O)C3=C(CCCC3)C2=O)c(F)cc1Cl (stereo not drawn) [Compound 5] in terms of ORYSAT herbicidal rating is 2.5

The reported value for CCOC(=O)CN1C(=O)C(F)SC1=Nc1cc(-n2c(=O)cc(C(F)(F)F)n(C)c2=O)c(F)cc1Cl (stereo not drawn) [Compound 11] in terms of ORYSAT herbicidal rating is 3.0

###

Field: GLXMAW rating. Provide a value for each of the compounds that follow.
Test system: GLXMAW (Soybean, Williams)
Assay: Preemergence herbicidal evaluation
Format: in vivo, Glycine max, (L.) Merr. cv Williams
Conditions: preemergence, 0.2500 kg/ha, rated 4-5 weeks after treatment, 0-9 scale
No unit in the answer, only the number.

The reported value for C=CCN1C(=O)C(CC(=O)NOC)SC1=Nc1cc(-n2c(=O)cc(C(F)(F)F)n(C)c2=O)c(F)cc1Cl (stereo not shown) in terms of GLXMAW rating is 2.0

The reported value for COC(=O)C1(N2C(=O)CSC2=Nc2cc(-n3c(=O)cc(C(F)(F)F)n(C)c3=O)c(F)cc2Cl)CCCCC1 in terms of GLXMAW rating is 3.0

The reported value for CN1C(=O)C(CC(=O)NS(C)(=O)=O)SC1=Nc1cc(-n2c(=O)cc(C(F)(F)F)n(C)c2=O)c(F)cc1Cl (stereo not shown) in terms of GLXMAW rating is 0.0

The reported value for COC(=O)CC1SC(=Nc2cc(-n3c(=O)cc(C(F)(F)F)n(C)c3=O)c(F)cc2Cl)N(C)C1=O (stereo not shown) in terms of GLXMAW rating is 9.0

###

Test system: CASOB (Sicklepod)
Experiment: Postemergence herbicidal evaluation
Format: in vivo, Cassia obtusifolia
Conditions: postemergence, rate 0.0315 kg/ha
recorded.metric: CASOB herbicidal rating
No unit in the answer, only the number.

The reported value for CCOC(=O)[C@H](C)N1C(=O)CSC1=Nc1cc(-n2c(=O)cc(C(F)(F)F)n(C)c2=O)c(F)cc1Cl in terms of CASOB herbicidal rating is 4.0

The reported value for CCOC(=O)C(c1ccc(Cl)cc1)N1C(=O)CSC1=Nc1cc(-n2c(=O)cc(C(F)(F)F)n(C)c2=O)c(F)cc1Cl (racemic) in terms of CASOB herbicidal rating is 1.0

The reported value for COC(=O)C1(N2C(=O)CSC2=Nc2cc(-n3c(=O)cc(C(F)(F)F)n(C)c3=O)c(F)cc2Cl)CCCCC1 in terms of CASOB herbicidal rating is 2.0

The reported value for Cn1c(C(F)(F)F)cc(=O)n(-c2cc(N=C3SCC(=O)N3C3CCOC3=O)c(Cl)cc2F)c1=O (stereo not shown) in terms of CASOB herbicidal rating is 7.0

###

Tested on: AMBEL (Ragweed, Common)
Assay: Postemergence herbicidal evaluation
Assay type: in vivo, Ambrosia artemisifolia
Details: postemergence, rate 0.0313 kg/ha
recorded.metric: herbicidal rating AMBEL
No unit in the answer, only the number.

The reported value for CN1C(=O)C(CC(=O)NO)SC1=Nc1cc(-n2c(=O)cc(C(F)(F)F)n(C)c2=O)c(F)cc1Cl (centres unmarked) in terms of herbicidal rating AMBEL is 9.0

The reported value for Cn1c(C(F)(F)F)cc(=O)n(-c2cc(N=C3SCC(=O)N3CC(F)(F)F)c(Cl)cc2F)c1=O in terms of herbicidal rating AMBEL is 9.0

The reported value for COCCN1C(=O)CSC1=Nc1cc(-n2c(=O)cc(C(F)(F)F)n(C)c2=O)c(F)cc1Cl in terms of herbicidal rating AMBEL is 0.0

The reported value for CCOC(=O)CN1C(=O)C(SC)SC1=Nc1cc(-n2c(=O)cc(C(F)(F)F)n(C)c2=O)c(F)cc1Cl (centres unmarked) in terms of herbicidal rating AMBEL is 8.0

The reported value for CCOC(=O)CN1C(=O)C(CC(=O)NS(=O)(=O)CC)SC1=Nc1cc(-n2c(=O)cc(C(F)(F)F)n(C)c2=O)c(F)cc1Cl (centres unmarked) in terms of herbicidal rating AMBEL is 9.0

###

Tested on: TRZAWR (Wheat, Winter, cv Riband)
Experiment: Postemergence herbicidal evaluation
Type: in vivo, Triticum aestivum
Conditions: postemergence, rate 0.0156 kg/ha
recorded.metric: TRZAWR herbicidal rating
No unit in the answer, only the number.

The reported value for CC1SC(=Nc2cc(-n3c(=O)cc(C(F)(F)F)n(C)c3=O)c(F)cc2Cl)N(C)C1=O (stereo not shown) in terms of TRZAWR herbicidal rating is 3.3

The reported value for CCC1SC(=Nc2cc(-n3c(=O)cc(C(F)(F)F)n(C)c3=O)c(F)cc2Cl)N(C)C1=O (stereo not shown) in terms of TRZAWR herbicidal rating is 2.5

The reported value for CN1C(=O)C(CC(=O)NS(C)(=O)=O)SC1=Nc1cc(-n2c(=O)cc(C(F)(F)F)n(C)c2=O)c(F)cc1Cl (stereo not shown) in terms of TRZAWR herbicidal rating is 1.0

The reported value for COC(=O)CN1C(=O)CSC1=Nc1cc(-n2c(=O)cc(C(F)(F)F)n(C)c2=O)c(F)cc1Cl in terms of TRZAWR herbicidal rating is 3.3
